Tested on: HL-60
protocol_description: NCI tumour cell line growth inhibition, 48 h
Active and inactive are the calls of the source. No stated cut-off is given here; in the data, active = GI50 up to about 1.1 µM and inactive = higher.
This listing pairs molecules with measured GI50.

Worked examples follow.
# structure, GI50
records = [
    ("O=C1[C@@H]2C(c3ccccc3F)=NO[C@@H]2C(=O)N1c1ccc(Cc2ccc(N3C(=O)[C@H]4C(c5ccccc5F)=NO[C@H]4C3=O)cc2)cc1", "14.4 µM (inactive)"),
    ("COC(=O)CCc1ccc2c(c1)C(=O)CC2", "> 100 µM (inactive)"),
]

Proceed to the following item.
Given item CCOC(=O)Cc1cnc(NC(NC(=O)CC)(C(F)(F)F)C(F)(F)F)s1 , the value recorded as its GI50 is > 100 µM (inactive)

###

Tested on: HL-60
protocol_description: NCI tumour cell line growth inhibition, 48 h
The source made the active and inactive calls. No stated cut-off is given here; in the data, active = GI50 up to about 1.1 µM and inactive = higher.
Could you please pick one outcome from this set? active, inactive

# molecule, label
records = [
    ("CN(/N=C/c1ccccn1)C1=NCCN1", "inactive"),
    ("S=C(N/N=C(/c1ccccc1)c1ccccn1)N(Cc1ccccn1)Cc1ccccn1", "active"),
    ("COc1ccc(OC)c2[s+]snc12", "inactive"),
    ("Cc1ccc(NCc2nnc3c(-c4ccccc4)nc4ccccc4n23)cc1", "inactive"),
    ("CC1(C)CC[C@]2(C(=O)O)CC[C@]3(C)C(=CC[C@@H]4[C@@]5(C)CC[C@H](OC6OC(CO)C(O)C(O)C6O)C(C)(C)[C@@H]5CC[C@]43C)[C@@H]2C1 (some centres not stated)", "inactive"),
]

Please let me know the test result on file for O=C(O)Cn1c(=O)[nH]c(=O)c2[nH]cnc21 .
inactive

###

System: RXF 631
protocol_description: NCI tumour cell line growth inhibition, 48 h
Calls of active or inactive are those of the source. No stated cut-off is given here; in the data, active = GI50 up to about 1.1 µM and inactive = higher.
This listing pairs compounds with measured GI50.

# compound, measurement_label, result
measured = [
    ("O=C(Nc1ccc2[nH]c3c(-c4ccccc4)nccc3c2c1)c1ccccc1[N+](=O)[O-]", "GI50", "3.81 µM (inactive)"),
    ("O=C(O)Cn1c(=O)[nH]c(=O)c2c1ncn2Cc1ccccc1", "GI50", "> 100 µM (inactive)"),
]

Given item O=C1/C(=C\c2ccccc2)C2/C(=C\c3ccccc3)C(=O)/C(=C\c3ccccc3)C2/C1=C\c1ccccc1 (stereo not drawn) , the value recorded as its GI50 is 3.12 µM (inactive)

###

System: ACHN
protocol_description: NCI tumour cell line growth inhibition, 48 h
Activity calls are given as the source filed them. No stated cut-off is given here; in the data, active = GI50 up to about 1.1 µM and inactive = higher.
measurement_label: GI50

Worked examples follow.
# compound, GI50
rows = [
    ("COc1cc2c(c(OC)c1)C1(CC(CC#N)C2)SCCS1 (stereo not given)", "> 100 µM (inactive)"),
    ("CC(=O)OCOC(=O)CN(CC(=O)OCOC(C)=O)Cc1cc2c(cc1OC(C)=O)Oc1cc(OC(C)=O)c(CN(CC(=O)OCOC(C)=O)CC(=O)OCOC(C)=O)cc1C21OC(=O)c2ccccc21", "1.38 µM (inactive)"),
    ("CCOC(=O)C1=C(C)N(Cc2ccc(Cl)cc2Cl)C2(O)C(OC)CC(=O)C3C(=O)N(c4ccccc4)C(=O)C132 (stereo not given)", "3.12 µM (inactive)"),
]

Given item CN(C)CCC(=O)N1C/C(=C/c2ccccc2)C(=O)/C(=C\c2ccccc2)C1 , the value recorded as its GI50 is 2.01 µM (inactive)

Given item N=C(N)c1ccc(OCCCCCOc2ccc(C(=N)N)cc2)cc1 [PENTAMIDINE] , the value recorded as its GI50 is 23.6 µM (inactive)
